Reference source for all entries: PubChem BioAssay (NCATS)

# System: Tov-21-G
# Procedure Details: Primary qHTS to identify gynecologic anti-cancer compounds using libraries of approved drugs and bioactive compounds (AID 1345084); also: % is scaled to controls: 0 for no effect and ±100 for the full control effect; nearly all actives have a fitted effect of over 55% in size
# Condition Details: Gynecologic cancer cell panel viability, ATPlite luminescence, 48 h; series mostly up to 57.5 µM
Inconclusive results are not listed. The source made the active and inactive calls. Calls follow the shape of the dose curve; as a rule, active = well fitted cell-killing curve with a large enough effect; inconclusive = small, poorly fitted or top-dose-only effect, or effect the other way; inactive = flat fitted curve, though single readings scatter.
Measured Metric: activity change, negative = cytotoxicity

### Prompt Requested field: activity change, negative = cytotoxicity. Item: C=CC(C)(O)CC/C=C(\C)C(=O)O[C@H]1[C@H](O)[C@@H](CO)O[C@@H](OC(=O)[C@]23CCC(C)(C)CC2C2=CCC4[C@@]5(C)CC[C@H](O[C@@H]6O[C@H](CO[C@@H]7OC[C@H](O)[C@H](O)[C@H]7O[C@@H]7OC[C@@H](O)[C@H](O)[C@H]7O)[C@@H](O)[C@H](O)[C@H]6O)C(C)(C)C5CC[C@@]4(C)[C@]2(C)CC3)[C@@H]1OC1OC(C)C(O[C@@H]2OC[C@@H](O)[C@H](O[C@@H]3OC[C@@H](O)[C@H](O)[C@H]3O)[C@H]2O)C(O)C1O (some centres undefined)
### Response 5.83% [at 6.55 µM] (inactive)

### Prompt Data request, read-out activity change, negative = cytotoxicity, for C/C=C(\C)C(=O)OC1CC2C(CC=C3CC(OC4CC(OC)C(OC5CC(OC)C(OC6OC(C)C(OC7OC(CO)C(O)C(O)C7O)C(OC)C6O)C(C)O5)C(C)O4)CCC32C)C2(O)CCC(C(C)=O)C12C (centres undefined)
### Response 3.39% [at 11.6 µM] (inactive)

### Prompt Which value of activity change, negative = cytotoxicity has been reported for C/C=C(\C)C(=O)O[C@H]1[C@H](OC(C)=O)[C@]2(CO)[C@H](O)[C@H](O)[C@]3(C)C(=CCC4[C@@]5(C)CC[C@H](O[C@@H]6O[C@H](C(=O)O)[C@@H](O)[C@H](O[C@@H]7OC[C@H](O)[C@H](O[C@@H]8OC[C@H](O)[C@H](O)[C@H]8O)[C@H]7O)[C@H]6O[C@@H]6O[C@H](CO)[C@@H](O)[C@H](O)[C@H]6O)C(C)(C)C5CC[C@]43C)[C@@H]2CC1(C)C (some centres undefined) in the records?
### Response 19.4% [at 6.55 µM] (inactive)

### Prompt Quick one: activity change, negative = cytotoxicity of COC1CC(OC2CCC3(C)C(=CCC4C3CCC3(C)C(C(C)OC5OC(COC6OC(CO)C(O)C(O)C6O)C(O)C(O)C5O)CCC43O)C2)OC(C)C1OC1OC(C)C(O)C(OC)C1O (centres undefined) ?
### Response 6.16% [at 11.6 µM] (inactive)

====

# Measured Target: Cytochrome P450 2D6 (Homo sapiens) (UniProt P10635)
# Sequence (P10635 whole entry, looked up): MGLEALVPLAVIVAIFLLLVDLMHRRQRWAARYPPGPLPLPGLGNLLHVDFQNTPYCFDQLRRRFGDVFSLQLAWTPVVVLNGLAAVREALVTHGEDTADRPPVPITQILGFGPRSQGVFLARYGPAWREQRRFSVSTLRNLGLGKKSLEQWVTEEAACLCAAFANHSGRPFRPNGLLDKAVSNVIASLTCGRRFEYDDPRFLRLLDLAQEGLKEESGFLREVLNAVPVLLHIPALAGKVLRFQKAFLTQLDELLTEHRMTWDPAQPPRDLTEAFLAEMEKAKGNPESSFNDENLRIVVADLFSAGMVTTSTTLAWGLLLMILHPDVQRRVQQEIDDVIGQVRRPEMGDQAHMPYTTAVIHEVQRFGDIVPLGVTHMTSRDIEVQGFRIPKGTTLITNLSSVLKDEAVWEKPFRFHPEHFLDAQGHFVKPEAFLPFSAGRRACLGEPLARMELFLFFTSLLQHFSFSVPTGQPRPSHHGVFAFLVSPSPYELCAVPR
# Procedure Details: Cytochrome P450 family 2 subfamily D member 6 (CYP2D6) small molecule antagonists: luciferase biochemical (cell-free) qHTS assay (AID 1645840); also: nearly all actives have a fitted effect of over 55% in size; also: potency is read from the fitted curve at half-maximal effect
# Condition Details: P450-Glo CYP2D6 enzyme, luciferin luminescence, 1 h; series mostly up to 57.4 µM
Results filed as inconclusive are left out. Active and inactive are the calls of the source. Calls come from the whole dose curve; as a rule, active = well fitted inhibition curve with a large enough effect in the repeat runs; inconclusive = weak or mixed curves; inactive = flat fitted curve, though single readings scatter.
Measured Metric: Potency

- CC(C)(C)c1cc(C(C)(C)C)c2c(c1)C(O)(C(F)(F)F)C(=O)O2 (stereo not drawn): inactive
- Cc1cc(C(=O)CN2CCCC2)c(C)n1-c1ccc(F)cc1: 0.952 µM (active)
- CN1CCC[C@@H]1Cc1c[nH]c2ccc(Nc3ncccc3[N+](=O)[O-])cc12: 3.01 µM (active)
- CN(C(=O)Cc1ccccc1)C(CN1CCCC1)c1ccccc1 (stereo not drawn): 0.0849 µM (active)
- CC(C)[C@@H](CN1CC[C@@](C)(c2cccc(O)c2)[C@@H](C)C1)NC(=O)[C@H]1Cc2ccc(O)cc2CN1: 6.01 µM (active)

### Prompt Which Potency value is on record for COCC(C)N(C(=O)CCl)c1c(C)csc1C (stereo not drawn) ?
### Response inactive

### Prompt Any idea what its Potency is? The compound is "COc1cc(CCNCc2ccccc2O)c(OC)cc1C#N"
### Response 1.9 µM (active)

### Prompt Can you share its Potency? I mean this compound: "CCCCCCn1c(=O)c(C(=O)Nc2ccc(C(=O)OCCC)cc2)c(O)c2ccccc21"
### Response inactive

### Prompt Can you share its Potency? I mean this compound: "O=C(NC(=O)c1c(F)cccc1F)Nc1ccc(Cl)c(Oc2ncc(C(F)(F)F)cc2Cl)c1"
### Response 1.51 µM (active)

### Prompt Recorded Potency for "COc1cc(C)[nH]c(=O)c1CNC(=O)c1c(C)n([C@H](C)C2CCOCC2)c2ccccc12" , please?
### Response inactive

### Prompt State the recorded Potency for this entry: "Cn1ncnc1COc1nn2c(-c3c(F)cccc3F)nnc2cc1C1CCC1"
### Response inactive

### Prompt Consider the compound C#CC(C)(O)CC (stereo not drawn) and give its measured Potency.
### Response inactive
